Test system: MS2 coat protein
Assay: apparent KD of MS2 coat protein; designed switch direction (-1 OFF switch, 1 ON switch): -1; higher = weaker reporter binding
Conditions: input ligand: none

residues	apparent KD of MS2 coat protein
UCUUAUUGAGGAUAUACAUUAAAAUACAUGAGGAUCACCCAUGUUCUUCAAUGUAUAUAUGUAGAAGGCAGAAGAU [Mat - Exclusion 5 - JL Mod - D26] (Eterna round: R97, puzzle: Exclusion 5)	36.9 nM
UAUGGGUCUACAGGAUAUUCCAGUAGAUAGAAGGGAGAAGGGUGGGCCUAUACUUGAGGAUCACCCAAGUGAAAAGGGUCAUCC [Mutated MS2 EX1.13] (Eterna round: R96, puzzle: Exclusion NG 1)	36.6 nM
CCUCCACAUGAGGAUCACCCAUGUAAGGAUAUACCACGCUAAGGCAAACAAAAGAACGGUAGAAGGUACCUGGC [Eternabot (Original) Solution 44] (Eterna round: R97, puzzle: Exclusion 1)	23.5 nM
CUCUGCACGCUGCGGUCCUACAUGAGGAUCACCCAUGUGGUCUGGUGGCGUGGGUCGCCGGACUUGGCUCGUCUUGA [salish99_S_TOV1_R5_046] (Eterna round: R97, puzzle: Sensor, turn-off variant 1)	18.7 nM

====

Reported apparent KD of MS2 coat protein is given for each of the following sequences.
Test system: MS2 coat protein
Assay: apparent KD of MS2 coat protein; designed switch direction (-1 OFF switch, 1 ON switch): -1; higher = weaker reporter binding
Settings: input ligand: FMN 200 uM
test_readout: apparent KD of MS2 coat protein (µM)

residues	test_result
UGCAGACGAGGAUAUGAUUAAUAAUACAUGAGGAUCACCCAUGUAAUACUGAUCUAUGGAUCAGAAGGUGUCUGCA [E5/6-B2] (Eterna round: R97, puzzle: Exclusion 5)	0.0177
AAUUCGCAAGCGAGAUCCCACAUGAGGAUCACCCAUGUGCUCGUCUUAUAAGGUACUGUGACGAAAGUCACGGUACC [Mat - Sensor, turn-off var - Eli Mod - D85] (Eterna round: R97, puzzle: Sensor, turn-off variant 1)	0.0162

====

Test system: MS2 coat protein
Test: apparent KD of MS2 coat protein; designed switch direction (-1 OFF switch, 1 ON switch): -1; higher = weaker reporter binding
Conditions: Eterna round: R95; input ligand: none
Decide by apparent KD of MS2 coat protein: equal to or exceeding 30 nM means fulfilled, less means not fulfilled.

residues	experimental_target	assigned_label
AAUAAUAAGGAGGAUAUCGUAUCGGAAACGAUACGAGAAGGCCUAACAUGAGGAUCACCCAUGUUCCUUAAAUA [Mat - Exclusion 6 - Eli Mod - D61] (puzzle: Exclusion 6)	MS2 coat protein	not fulfilled
AACCCUAGGGUCAGACGCACAAGCUUUUUGCUCGUUUUAACAUGAGGAUCACCCAUGUCUAGUGGAUCUGAUCGGGC [Isreen] (puzzle: Sensor v3, turn-off variant 2)	MS2 coat protein	not fulfilled
UCAUACGGUGAGGAUAUCUCCACUAAAGUGUGAAGAGAAGGCGCUACAUGAGGAUCACCCAUGUUUAUGGGCAG [Ex-6 Malc#14] (puzzle: Exclusion 6)	MS2 coat protein	fulfilled
ACAACAAGCUUUUUGAACGUAGAACAUGAAGCUCUAGUCACAUGAGGAUCACCCAUGUCAGCCAGUUAGAUAGGUGA [JR_SV3TOV2_Sub065] (puzzle: Sensor v3, turn-off variant 2)	MS2 coat protein	fulfilled
CAUAGUAAUUAGGAUAUCUGCCGGCUGAGCCGAGGAGAAGGGAUUACAUGAGGAUCACCCAUGUGGUCCUAGAA [Lebireti] (puzzle: Exclusion 6)	MS2 coat protein	not fulfilled
